# System: RXF 393 renal
# Method summary: NCI tumour cell line growth inhibition, 48 h
Experimental endpoint: TGI

Record excerpt, results attached:
[[record]]
molecule = "CN1CN(c2ccccc2)C2(CCN(CCCC(=O)c3cccs3)CC2)C1=O"
measured_on = "RXF 393 renal"
reported = "> 100 µM"

[[record]]
molecule = "O=c1[nH]cnc2c(C3OC(CO)C(O)C3O)scc12 (centres undefined)"
measured_on = "RXF 393 renal"
reported = "> 100 µM"

[[record]]
molecule = "O=C(O)C/C(=C\\c1ccccc1)C(=O)O"
measured_on = "RXF 393 renal"
reported = "> 100 µM"

[[record]]
molecule = "CCC1CN2CCc3cc(OC)c(OC)cc3C2CC1CC1c2cc(OC)c(OC)cc2CCN1C(=O)CNC(=O)OC(C)(C)C (centres undefined)"
measured_on = "RXF 393 renal"
reported = "51.2 µM"


Lab note: measured TGI of "[O-]c1on[n+]2c1c(Nc1ccc(Cl)cc1)nc1ccccc12" was > 100 µM

// TGI lookup, molecule = "O=C1CCc2cc3c(cc21)CC1(Cc2ccccc2C1)C3" , result: > 76.8 µM

Values compiled from PubChem BioAssay (NCI).
